test: NCI Yeast Anticancer Drug Screen. Data for the mec2-1 strain (AID 157); conditions: S. cerevisiae mec2-1 strain, at 50.0 µM
This is part of a sample that, as a whole, favours compounds with a hit. Of some 79,000 tested, about 15% had one in any assay. The source made the active and inactive calls. Cut-off read from the data, not from the text of the source: active = growth inhibition above about 70%; inactive = the rest.
The categories you may choose from are active, inactive

Check out these entries, answers already filled in.
- molecule: "O=c1nc2sc3ccccc3c(=O)n2[nH]1"
  assigned.label: "inactive"
- molecule: "O=Nc1c(O)[nH]c2c(Cl)cccc12"
  assigned.label: "inactive"
- molecule: "c1nc2c([nH]1)CNCC2"
  assigned.label: "inactive"
- molecule: "O=C(Nc1nc2ccc([N+](=O)[O-])cc2s1)C(=O)C(C(=O)c1ccncc1)C1OC(=O)c2ccccc21 (stereo not given)"
  assigned.label: "inactive"
- molecule: "CCOC(=O)Nc1nc2ccccc2n1CN1CCN(c2ccccc2)CC1"
  assigned.label: "inactive"
- molecule: "COc1cc(N)ccc1C(=O)NC(CCC(=O)O)C(=O)O (stereo not given)"
  assigned.label: "inactive"
- molecule: "COc1ccc2nccc(CO)c2c1"
  assigned.label: "inactive"
- molecule: "CCOc1ccc(N2N=C(C)CCC2=O)cc1"
  assigned.label: "inactive"

-- ask Just curious, what result did `CC(C)(C)C(=O)C(=O)O` get here?
-- reply inactive

-- ask Just curious, what result did `COC(=O)c1ccccc1C#CC#Cc1ccccc1C(=O)OC` get here?
-- reply inactive

-- ask Just curious, what result did `CCCCCCCCCCCCCCCC/C(C)=C\C(=O)OC` get here?
-- reply inactive

-- ask Just curious, what result did `CCn1c(=O)c2[nH]c(-n3c(Cl)nc4c3c(=O)n(CC)c(=O)n4CC)nc2n(CC)c1=O` get here?
-- reply inactive

-- ask Just curious, what result did `O=C(NC1CCCCC1)C(c1ccccc1)c1ccccc1` get here?
-- reply inactive

-- ask Just curious, what result did `CC(C)(C)SCC(=O)O` get here?
-- reply inactive

-- ask Just curious, what result did `O=C(O)c1c(O)cc(=O)oc1-c1ccccc1Cl` get here?
-- reply inactive

-- ask Just curious, what result did `COc1ccc(NC(=O)C/C(C)=C2/C(=O)NN(c3ccccc3)C2=O)cc1` get here?
-- reply inactive

-- ask Just curious, what result did CCCCNC(=O)CCC(NS(=O)(=O)c1ccc(C)cc1)C(=O)NCCCC (stereo not given) get here?
-- reply inactive

-- ask Just curious, what result did `CCCCOC(=O)c1ccc(NC(=O)Nc2c(C)cccc2C)cc1` get here?
-- reply inactive

-- ask Just curious, what result did `CCCCCCCCCCCCCCCCCC(=O)Oc1ccc(OCc2ccccc2)cc1` get here?
-- reply inactive

-- ask Just curious, what result did `O=[N+]([O-])c1ccc(N/N=C(/c2ccc3ccccc3c2)c2ccccc2F)c([N+](=O)[O-])c1` get here?
-- reply inactive

-- ask Just curious, what result did `CCOC(=O)C(=O)Nc1ccc2cc(OC)ccc2c1C#N` get here?
-- reply inactive

-- ask Just curious, what result did `CCCCCCCCCCCCCCCO` get here?
-- reply inactive

-- ask Just curious, what result did `CC(=O)CCC(=O)c1ccoc1` get here?
-- reply inactive

-- ask Just curious, what result did CC(C)(C)NCC(CN1CCOCC1)C(=O)c1ccccc1 (stereo not given) get here?
-- reply active

-- ask Just curious, what result did `O=C1c2cccc(S)c2C(=O)c2cccc(S)c21` get here?
-- reply inactive

Data provenance: PubChem BioAssay (NCI)
